Biological target: T1, Human Siglec-15, His Tag (human Siglec-15 full-length extracellular domain linked with His tag) (human, UniProt Q6ZMC9 20-263)
T1 construct: Bought from ACROBiosystems; also called Siglec-15 protein; SG5-H52H3
T1 sequence: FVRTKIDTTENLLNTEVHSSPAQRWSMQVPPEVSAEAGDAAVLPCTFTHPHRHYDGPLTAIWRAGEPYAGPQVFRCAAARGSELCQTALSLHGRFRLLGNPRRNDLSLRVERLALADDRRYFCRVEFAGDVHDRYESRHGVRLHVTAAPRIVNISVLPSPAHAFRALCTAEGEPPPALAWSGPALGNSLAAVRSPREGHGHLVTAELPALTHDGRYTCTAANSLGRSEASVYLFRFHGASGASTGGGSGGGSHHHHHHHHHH
Assay: ELISA, coated antigen
Sorting guide: entries reporting EC50 beneath 5 ng/mL go in the Fulfilled pile, the rest go in the Not fulfilled pile.

Query string: Determine if 174C11C9 chimeric antibody (antibody, human IgG1, V domains shown, also called 174C11C9-mHL) VH: EVQLQQSGPVLVKPGASVKMSCEASGYIFTDYYMNWVKQSPGKSLEWIGVFNPYSGGISYNQKFKGKATLTVDTSSSTAYMELNSLTSEDSAVYYCARDYYYLSSHGFYALDYWGQGTSVTVSS VL: DIVLTQSPASLAVSLGQRATISCRASESVDSYGNSFIHWYQQRPGRPPKLLMYRASNLESGIPARFSGSGSRTDFTLTIDPVEADDVATYYCQQSNEDPLTFGAGTKLELK shows EC50 strictly lower than 5 ng/mL.
Result string: Not fulfilled

Query string: Determine if 21F6C6 chimeric antibody (antibody, human IgG1, V domains shown, also called 21F6C6-mHL) VH: EVMLVESGGGLVKPGGSLKLSCAASGFTFSSYAMSWVRQSPEKRLEWVATISSGGSLIYYPDSVTGRFTISRDNAKSTLYLQMSSLRSEDTAMYYCVRHGYYYGDSTLYYAMDYWGPGTSVTVSS VL: DIVLTQSPASLAVSLGQRATISCKASQSVDYDGDSYMNWYQQKPGQPPKLLIYAASNLESGIPARFSGSGSGTDFTLNIHPVEEEDAATYYCQQSNEAPLTFGAGTKLELK shows EC50 strictly lower than 5 ng/mL.
Result string: Fulfilled

Query string: Determine if 124B11F6 chimeric antibody (antibody, human IgG1, V domains shown, also called 124B11F6-mHL) VH: EVQLQQSGAELVRPGASVKLSCTASVFNIKDYYMHWVKQRTEQGLEWIGRIDPEDDKTKYAPKFQGKATITADTSSNTAYLHLSTLTSEDTAVYYCVRGWLGYIMDFWGQGTSVTVSS VL: QLVLTQSSSASFSLGASAKLTCTLSSQHSTYTIDWYQQQPLKPPKYVMELKEDGSHSTGDGIPDRFSGSSSGADRYLGISNIQPEDEAVYICGVGATIKEQFVYVFGGGTKVTVL shows EC50 strictly lower than 5 ng/mL.
Result string: Not fulfilled

Query string: Determine if 75E1F2 chimeric antibody (antibody, V domains shown, Mouse variable regions combined with human IgG1 (N297A) constant regions) VH: EVQLVESGGGSVKPGGSLKLSCAASGFTFSDYGMHWVRQAPEKGLEWITYISSGSSIIDYSDTVKGRFTISRDNAKDTLFLQMTSLRSEDTAIYYCVRREDHYAMDYWGQGTSVTVSS VL: DIVMTQSHKFLSTSVGDRVSITCKASQDVYTAVAWFQQKPGQSPKLLFYSASYRFTGVPDRFNGSGSGTDFTLTITSMQAEDLAVYYCQQHYSTPWTFGGGTKLEIK shows EC50 strictly lower than 5 ng/mL.
Result string: Not fulfilled

Query string: Determine if 255C12B10 chimeric antibody (antibody, V domains shown, Mouse variable regions combined with human IgG1 (N297A) constant regions) VH: EVQLQQSGPELVKPGASVKMSCKASGYTFTGYNMNWVKQSHGKSLEWIGYINPNNGGTRYNQKFKGKATLTINKSSSTAYMELRSLTSEDSAVYYCARDYGIDYWGQGTTLTVSS VL: EIQMTQSPSSMSASLGDRITITCQATQDIVKNLNWYQQKPGKPPSFLIYYATELAEGVPSRFSGSGSGSDYSLTISNLESEDFADYYCLQFYEFPYTFGGGTKLEIK shows EC50 strictly lower than 5 ng/mL.
Result string: Not fulfilled

Where do these numbers come from? They come from patent US20240092897A1.
